- Tested on: HRV16
- Test Summary: HRV16 HELA EC50 (cytopathic effect in H1-HeLa cells)
- Assay type: cell-based
- Condition Info: 96 h, H1-HeLa cells, 33° C., read-out: HRV16 HELA EC50
Measure Name: EC50 (µM)
Only the number, expressed in µM, is required.

Check out these entries, answers already filled in.
Compound	Measure Name	Measurement Unit	Readout Value
C[C@H](NP(=O)(OC[C@@]1(C#N)O[C@@H](c2ccc3c(N)ncnn23)[C@H](O)[C@@H]1O)Oc1ccccc1)C(=O)O[C@@H]1CCOC1 (mixture of isomers)	EC50	µM	4.72
CCC(CC)COC(=O)C1(NP(=O)(OC[C@@]2(C#N)O[C@@H](c3ccc4c(N)ncnn34)[C@H](O)[C@@H]2O)Oc2ccccc2)CCC1 (stereo partly drawn)	EC50	µM	18
C[C@H](NP(=O)(OC[C@@]1(C#N)O[C@@H](c2ccc3c(N)ncnn23)[C@H](O)[C@@H]1O)Oc1ccccc1)C(=O)OCC(CO)CO (stereo partly drawn)	EC50	µM	29

Lab note: measured EC50 of C[C@H](NP(=O)(OC[C@@]1(C#N)O[C@@H](c2ccc3c(N)ncnn23)[C@H](O)[C@@H]1O)Oc1ccccc1)C(=O)OCC1CCN(CC(F)(F)F)CC1 (stereo partly drawn) was 2.5

Lab note: measured EC50 of C[C@H](NP(=O)(OC[C@@]1(C#N)O[C@@H](c2ccc3c(N)ncnn23)[C@H](O)[C@@H]1O)Oc1ccccc1)C(=O)OC1COC1 (stereo partly drawn) was 4.26

Lab note: measured EC50 of CCCCCCCCCCCCCCCCOC(=O)[C@H](C)NP(=O)(OC[C@@]1(C#N)O[C@@H](c2ccc3c(N)ncnn23)[C@H](O)[C@@H]1O)Oc1ccccc1 (stereo partly drawn) was 0.738

* * *

- Tested on: HRV16
- Test Summary: HRV16 HELA EC50 (cytopathic effect in H1-HeLa cells)
- Format: cell-based
- Condition Info: 96 h, read-out: HRV16 HELA EC50
- Description: H1-HeLa cells, cultured in complete DMEM medium containing 10% heat-inactivated FBS and 1% Penicillin/Streptomycin, were seeded in 96 well plates at 3000 cells/well one day prior to compound dosing and infection. The antiviral activity of each compound was measured in triplicate. […] Cell viability was determined by removing 100 μL of culture medium and adding 100 μL of Cell-Titer Glo viability reagent. […]
// reported pEC50 for each item listed
To interpret pEC50, take it as minus log10 of a concentration measured in moles per litre.

Check out these entries, answers already filled in.
>>> df
                                   compound  readout_value
0  CCOC(=O)c1ccccc1OP(=O)(OC[C@@]1(C#N)O[C@@H](c2ccc3c(N)ncnn23)[C@H](O)[C@@H]1O)Oc1ccccc1C(=O)OCC           4.78
1  CCOC(=O)c1ccccc1OP1(=O)OC[C@@]2(C#N)O[C@@H](c3ccc4c(N)ncnn34)[C@H](OC(=O)CC)[C@@H]2O1 (some centres unmarked)           4.94

Now consider a different compound.
Lab note: measured pEC50 of CCC(CC)COC(=O)[C@H](C)OP(=O)(OC[C@@]1(C#N)O[C@@H](c2ccc3c(N)ncnn23)[C@H](O)[C@@H]1O)Oc1ccccc1 (some centres unmarked) was 4.47

* * *

- Tested on: RSV strain A2
- Test Summary: RSV HEp-2 EC50 (infectious cytopathic cell protection assay)
- Assay type: cell-based
- Condition Info: human respiratory syncytial virus, HEp-2, 96 h, HEp-2 cells, RSV A2, 4 days; read-out: RSV HEp-2 EC50
- Procedure: Antiviral activity against RSV is determined using an infectious cytopathic cell protection assay in HEp-2 cells. In this assay, compounds inhibiting viral infection and/or replication produce a cytoprotective effect against the virus-induced cell killing that can be quantified using a cell viability reagent. The techniques used here are novel adaptations of methods described in published literature (Chapman et al., Antimicrob Agents Chemother. 2007, 51(9):3346-53.) […]
Measure Name: EC50 (nM)
Only the number, expressed in nM, is required.

Check out these entries, answers already filled in.
Compound	Target	EC50 / nM
C[C@H](NP(=O)(OC[C@@]1(C#N)O[C@@H](c2ccc3c(N)ncnn23)[C@H](O)[C@@H]1O)Oc1ccccc1)C(=O)O[C@H]1CCNC1 (stereo partly shown)	RSV strain A2	4040
C[C@H](NP(=O)(OC[C@@]1(C#N)O[C@@H](c2ccc3c(N)ncnn23)[C@H](O)[C@@H]1O)Oc1ccccc1)C(=O)OC1CCC(F)(F)CC1 (mixture of isomers)	RSV strain A2	257
C[C@H](NP(=O)(OC[C@@]1(C#N)O[C@@H](c2ccc3c(N)ncnn23)[C@H](O)[C@@H]1O)Oc1ccccc1)C(=O)OCC1CCCCC1 (single isomer, unassigned) [Example 247]	RSV strain A2	44
C[C@H](NP(=O)(OC[C@@]1(C#N)O[C@@H](c2ccc3c(N)ncnn23)[C@H](O)[C@@H]1O)Oc1ccccc1)C(=O)OCC1CCN(CC(F)(F)F)CC1 (stereo partly shown)	RSV strain A2	334
CC(C)OC(=O)[C@H](C)N[P@](=O)(OC[C@@]1(C#N)O[C@@H](c2ccc3c(NC(=O)C(C)C)ncnn23)[C@H](O)[C@@H]1O)Oc1ccccc1	RSV strain A2	696

Now consider a different compound.
Lab note: measured EC50 of C[C@@H](NP(=O)(OC[C@@]1(C#N)O[C@@H](c2ccc3c(N)ncnn23)[C@H](O)[C@@H]1O)Oc1ccccc1)C(=O)O[C@@H]1CCN(C(=O)OC(C)(C)C)C1 (stereo partly shown) was 8890

* * *

- Tested on: HCV replicon 2A
- Test Summary: HCV Rep 2A EC50 (replicon luciferase)
- Assay type: cell-based
- Condition Info: Hepatitis C virus, 72 h, read-out: HCV Rep 2A EC50, replicon cells, 3 days
pEC50: −log10 of the molar value.
Would you please tag the item Met when its pEC50 is 6 or above, and Not met when it is below?

Molecule	Class Assignment
CCCCCCCCCCCCOC(=O)[C@H](C)NP(=O)(OC[C@@]1(C#N)O[C@@H](c2ccc3c(N)ncnn23)[C@H](O)[C@@H]1O)Oc1ccccc1 (some centres unmarked)	Not met
C[C@H](NP(=O)(OC[C@@]1(C#N)O[C@@H](c2ccc3c(N)ncnn23)[C@H](O)[C@@H]1O)Oc1ccccc1)C(=O)OC1CCCCC1 (some centres unmarked)	Not met
C[C@H](NP(=O)(OC[C@@]1(C#N)O[C@@H](c2ccc3c(N)ncnn23)[C@H](O)[C@@H]1O)Oc1ccccc1)C(=O)OCC(C)(C)C (some centres unmarked)	Not met

Please turn your attention to the following entry.
Query block: Can CCC(CC)COC(=O)[C@H](C)N[P@](=O)(OC[C@@]1(C#N)O[C@@H](c2ccc3c(N)ncnn23)[C@H](O)[C@@H]1O)Oc1ccccc1 (single isomer, unassigned) be said to have pEC50 at or above 6?
Result block: Met

* * *

- System: HRV99
- Test Summary: HRV99 EC50
- Type: cell-based
// reported pEC50 for each item listed
To interpret pEC50, take it as minus log10 of a concentration measured in moles per litre.

                                   compound  measure_name  readout_value
0  CCCCCCCCCCCCCCCCCCOC[C@H](COP(=O)(O)OC[C@@]1(C#N)O[C@@H](c2ccc3c(N)ncnn23)[C@H](O)[C@@H]1O)OCc1ccccc1         pEC50           4.19
1  CCC(CC)COC(=O)[C@@H](C)NP(=O)(OC[C@@]1(C#N)O[C@@H](c2ccc3c(N)ncnn23)[C@H](O)[C@@H]1O)Oc1ccccc1 (stereo partly shown)         pEC50           4.71
2  CCC(CC)COC(=O)[C@H](CC)NP(=O)(OC[C@@]1(C#N)O[C@@H](c2ccc3c(N)ncnn23)[C@H](O)[C@@H]1O)Oc1ccccc1 (mixture of isomers)         pEC50           5.34

Now consider a different compound.
Lab note: measured pEC50 of CC[C@H](NP(=O)(OC[C@@]1(C#N)O[C@@H](c2ccc3c(N)ncnn23)[C@H](O)[C@@H]1O)Oc1ccccc1)C(=O)OC1CCCCC1 (mixture of isomers) was 5.32

* * *

- Tested on: HRV14
- Test Summary: HRV14 HELA EC50 (cytopathic effect in H1-HeLa cells)
- Format: cell-based
- Condition Info: H1-HeLa cells, 96 h; read-out: HRV14 HELA EC50
Measure Name: EC50

Lab note: measured EC50 of CCCCCCCCCCCCCCCCCCOC[C@H](COP(=O)(O)OC[C@@]1(C#N)O[C@@H](c2ccc3c(N)ncnn23)[C@H](O)[C@@H]1O)OCc1ccccc1 was 12 µM

* * *

- Test system: RSV strain A2
- Test Summary: RSV HEp-2 EC50 (infectious cytopathic cell protection assay)
- Assay type: cell-based
- Condition Info: human respiratory syncytial virus, HEp-2, 96 h, HEp-2 cells, RSV A2, 4 days; read-out: RSV HEp-2 EC50
Measure Name: log10 EC50 (log10 of the value in nM)
Short version: log10 scale, EC50, nM.

Check out these entries, answers already filled in.
Compound	Target	log10 EC50
COC(=O)[C@H](C)N[P@](=O)(OC[C@@]1(C#N)O[C@@H](c2ccc3c(N)ncnn23)[C@H](O)[C@@H]1O)Oc1ccccc1	RSV strain A2	1.97
C[C@H](NP(=O)(OC[C@@]1(C#N)O[C@@H](c2ccc3c(N)ncnn23)[C@H](O)[C@@H]1O)Oc1ccccc1)C(=O)O[C@H]1CC[C@H](C(F)(F)F)CC1 (stereo partly drawn)	RSV strain A2	3.11
C[C@H](NP(=O)(OC[C@@]1(C#N)O[C@@H](c2ccc3c(N)ncnn23)[C@H](O)[C@@H]1O)Oc1ccccc1)C(=O)OC1CCCN(CC(F)(F)F)CC1 (stereo partly drawn)	RSV strain A2	2.67
CC[C@H](NP(=O)(OC[C@@]1(C#N)O[C@@H](c2ccc3c(N)ncnn23)[C@H](O)[C@@H]1O)Oc1ccccc1)C(=O)OC(C)C (stereo partly drawn)	RSV strain A2	3.13

The compound C[C@H](N[P@@](=O)(OC[C@@]1(C#N)O[C@@H](c2ccc3c(N)ncnn23)[C@H](O)[C@@H]1O)Oc1ccccc1)C(=O)OC1CCCCC1 (single isomer, unassigned) on RSV strain A2: log10 EC50 was 3.44

The compound C[C@H](N[P@](=O)(OC[C@@]1(C#N)O[C@@H](c2ccc3c(N)ncnn23)[C@H](O)[C@@H]1O)Oc1ccccc1)C(=O)O[C@H]1CC[C@H](C(F)(F)F)CC1 (single isomer, unassigned) on RSV strain A2: log10 EC50 was 2.06

The compound CC(C)C(=O)O[C@H]1[C@H](c2ccc3c(N)ncnn23)O[C@](C#N)(CO[P@@](=O)(N[C@@H](C)C(=O)OC2CCCCC2)Oc2ccccc2)[C@H]1O (single isomer, unassigned) on RSV strain A2: log10 EC50 was 2.00

The compound CC(=O)N1CCC(OC(=O)C(C)NP(=O)(OC[C@@]2(C#N)O[C@@H](c3ccc4c(N)ncnn34)[C@H](O)[C@@H]2O)Oc2ccccc2)CC1 (stereo partly drawn) on RSV strain A2: log10 EC50 was 3.90
